Values from patent US20120122848A1

assay: Cell cytotoxicity test: protection of HT22 cells against glutamate toxicity (EC50) and cytotoxicity of the compounds (CC50), MTT; type: cell-based, mouse; conditions: mouse, HT22 cells (mouse hippocampal neuron)
Counter-ions that a name gives are not always drawn.
Category | rule: reported CC50 at 24 h within range, see range A = under 6 µM, range B = from 6 µM up to 30 µM, range C = 30 µM and over

molecule	class label
CCNc1cc2c(cc1O)[C@]13CCCC[C@@H]1[C@H](C2)NCC3 [Example 23, TFA salt]	range C
Cc1ccccc1Nc1cc2c(cc1O)[C@]13CCCC[C@@H]1[C@H](C2)NCC3 [Example 41, TFA salt]	range B
Oc1cc2c(cc1Nc1ccc(F)cc1)C[C@@H]1NCC[C@]23CCCC[C@H]13 [Example 29, TFA salt]	range B
CC(C)(C)c1ccccc1Nc1cc2c(cc1O)[C@]13CCCC[C@@H]1[C@H](C2)NCC3 [Example 51, TFA salt]	range A
CCCCNc1cc2c(cc1O)[C@]13CCCC[C@@H]1[C@H](C2)NCC3 [Example 90, TFA salt]	range C
Oc1cc2c(cc1Nc1ccc(Cl)c(Cl)c1)C[C@@H]1NCC[C@]23CCCC[C@H]13 [Example 65, TFA salt]	range A
Oc1cc2c(cc1Nc1ccccc1C(F)(F)F)C[C@@H]1NCC[C@]23CCCC[C@H]13 [Example 52, TFA salt]	range A
CC1(c2cc3c(cc2O)[C@]24CCCC[C@@H]2[C@H](C3)NCC4)CCCCC1 [Example 105, TFA salt]	range A
N#Cc1ccccc1Nc1cc2c(cc1O)[C@]13CCCC[C@@H]1[C@H](C2)NCC3 [Example 107, TFA salt]	range A
Oc1cc2c(cc1Nc1ccccc1-c1ccccc1)C[C@@H]1NCC[C@]23CCCC[C@H]13 [Example 60, TFA salt]	range A
CN(C)c1cc2c(cc1O)[C@]13CCCC[C@@H]1[C@H](C2)NCC3 [Example 98, TFA salt]	range C
CCS(=O)(=O)Nc1ccccc1Nc1cc2c(cc1O)[C@]13CCCC[C@@H]1[C@H](C2)NCC3 [Example 111, TFA salt]	range C
Oc1cc2c(cc1Sc1ccccc1)C[C@@H]1NCC[C@]23CCCC[C@H]13 [Example 73, TFA salt]	range A
CC(C)(C)Nc1cc2c(cc1O)[C@]13CCCC[C@@H]1[C@H](C2)NCC3 [Example 20, TFA salt]	range C
CCOCCNc1cc2c(cc1O)[C@]13CCCC[C@@H]1[C@H](C2)NCC3 [Example 99, TFA salt]	range C
CC(=O)Nc1ccc(Nc2cc3c(cc2O)[C@]24CCCC[C@@H]2[C@H](C3)NCC4)cc1 [Example 116, TFA salt]	range C
Oc1cc2c(cc1N1CCOCC1)C[C@@H]1NCC[C@]23CCCC[C@H]13 [Example 86, TFA salt]	range C
CCN(CC)c1ccccc1Nc1cc2c(cc1O)[C@]13CCCC[C@@H]1[C@H](C2)NCC3 [Example 129, TFA salt]	range A
CC(C)Cc1cc2c(cc1O)[C@]13CCCC[C@@H]1[C@H](C2)NCC3 [Example 81, TFA salt]	range B
CCCCS(=O)(=O)Nc1ccccc1Nc1cc2c(cc1O)[C@]13CCCC[C@@H]1[C@H](C2)NCC3 [Example 112, TFA salt]	range B
N#Cc1cccc(-c2cc3c(cc2O)[C@]24CCCC[C@@H]2[C@H](C3)NCC4)c1 [Example 78, TFA salt]	range B
Oc1cc2c(cc1NCCC(F)(F)F)C[C@@H]1NCC[C@]23CCCC[C@H]13 [Example 97, TFA salt]	range C
CCC(C)Nc1cc2c(cc1O)[C@]13CCCC[C@@H]1[C@H](C2)NCC3 (some centres unmarked) [Example 95, TFA salt]	range C
CC(C)Nc1cc2c(cc1O)[C@]13CCCC[C@@H]1[C@H](C2)NCC3 [Example 87, TFA salt]	range C
CCCCNC(=O)Nc1ccccc1Nc1cc2c(cc1O)[C@]13CCCC[C@@H]1[C@H](C2)NCC3 [Example 121, TFA salt]	range B
CC(C)c1ccc(Nc2cc3c(cc2O)[C@]24CCCC[C@@H]2[C@H](C3)NCC4)cc1 [Example 54, TFA salt]	range A
CCCc1cc2c(cc1O)[C@]13CCCC[C@@H]1[C@H](C2)NCC3 [Example 82, (+)-3-Hydroxy-2-propylmorphinan TFA salt]	range B
